Attribution: the nanobody polyreactivity screen of Harvey et al. (2022)

Assay: yeast display, Sf9 membrane polyspecificity reagent, FACS + sequencing; frameworks hold sequencing errors

>  <monomer.sequence>
QVQLVESGGGLVQAGGSLRLSCAASGSTFVFYAMGWYRQAPGKERELVAAISRSGGSTYYADSVKGRFTISRDNAKNTVYLQMNSLKPEDTAVYYCNAVRFYRYGWGQGTQVTVSS

>  <polyreactivity (PSR sort gate)>
high polyreactivity

$$$$
>  <monomer.sequence>
QVQLVESGGGLVQAGGSLRLSCAASGSIFDINAMGWYRPAPGKERELVADIRGGDSTNYADSVKGRFTISRDNATNTVYLQMNSLKPEDTAVYYSAARWRRSKYGVYPQRPYDYWGQGTQVTVSS

>  <polyreactivity (PSR sort gate)>
high polyreactivity

$$$$
>  <monomer.sequence>
QVQLVESGGGLFQAGGSLRLSCAASGFIFRSNAMGGYRHAPGKERELVAAISGGGITYYADSVKGRFTISRDNAKNTVYLQMNSLKPEDTAVYYCAVRWYFKTHWGGYHPYEYCGQGTQVTVSS

>  <polyreactivity (PSR sort gate)>
high polyreactivity

$$$$

---

Assay: yeast display, Sf9 membrane polyspecificity reagent, FACS + sequencing; frameworks hold sequencing errors
metric: polyreactivity (PSR sort gate)

>  <monomer.sequence>
QVQLVESGGGLVQAGGSLRLSCAASGSTFPGNAMGWYRQAPGKERELVAAIRDRGTSTYYADSVKGRFTISRDNAKNTVYLQMNSLNPEDTAVYYCAARSFTADLGYYWGQGTQVTVSS

>  <polyreactivity (PSR sort gate)>
high polyreactivity

$$$$
>  <monomer.sequence>
QVQLVESGGGLVQAGGSLRLSCAASGRTFYHNTIGGYRQQPGKERELVAVINDSGTRTYYADSVKGRFTISRDNAKNTVYLQMNSLKPEDTAVYYCAARSYVGGAILGYWGQGTQVTVSS

>  <polyreactivity (PSR sort gate)>
high polyreactivity

$$$$
>  <monomer.sequence>
QVQLVESAGGLVQAGGSLRLSCAASGGTFLQYAMGSYRQAPGKERELVATITLIGDSTYYADSVKGRFTISRDNAKNTVYLQMNSLIPEDTAVYYCADRPVTSYAYGSWGQGTQVTVSS

>  <polyreactivity (PSR sort gate)>
low polyreactivity

$$$$
>  <monomer.sequence>
QVQLVESGGGLVQAGGTLRLSCAASGFTFFSNAMGWYRQPPGKERELVAAIPTNGGSTYYADSVKGRFTISRDNAMNTVYLQMNSLKPEDTALYYCAAEYTVGGPYSYDFWGQGTQVTVSS

>  <polyreactivity (PSR sort gate)>
low polyreactivity

$$$$
>  <monomer.sequence>
QVQLVESGGGLVQAGGSLRLSCAASGSTFGYYGMGWYRQAPGKERELVAAISASGGRTYYADSVKGRFTISRDNAKITVYLQMNSLKPEDTAVYYCAATVYAWRSTYGYWGQGTQVTVSS

>  <polyreactivity (PSR sort gate)>
high polyreactivity

$$$$

Exam item: Entry `QVQLVESGGGLVQAGGSLRLSCAASGSIFANNAMGWYRQAPGKERELVAAIDWSAASTYYADSVKGRFTISRDNAKNTVYLQMNSLKPEDTAVYYCNARALGGGHIGFNHYVYGFGYWGQGTQVTVSS` has what polyreactivity (PSR sort gate)?
Marked response: low polyreactivity

Exam item: Entry `QVQLVESGGGLVQAGGSLRLSCAASGSIFSLYTMGWYRQAPGKERELVATIRSVGSTNYADSVKGRFTISRDNAKNTVYLQMNSLKPEDTAVYYCAAGWYYGVYYIYDYWGQGTQVNVSS` has what polyreactivity (PSR sort gate)?
Marked response: high polyreactivity

Exam item: Entry `QVQLVESGGGLVQAGGSLRLSCASSGGTFGSYAMGWYRHAPGKERELVAAIRSGDRTYYADSVKGRFTISRDNAKNTVYLQMNSLKPEDTAVYYCAAFYHHYYRYDYWGQGTQVTVSS` has what polyreactivity (PSR sort gate)?
Marked response: low polyreactivity

Exam item: Entry `QVQLVESGGGLVQAGGSLRLSCAASGRTLGRYAMGWYRQAPGKERELVAAMNVGGGTTHYADSVKGRFTISRDNAKNTVYLQMNSLKPEDTAVYYCAAYRYTYGDRHAYDYWGQGTQVTVSS` has what polyreactivity (PSR sort gate)?
Marked response: low polyreactivity

Exam item: Entry `QVQLVESGGGLVQAGGSLRLSSADSGSIFVYNDMGWYRQAPGKERELVARIDWSGDRTYADSVKGRFTISRDNAKNTVYLQMNSLKPEDTAVYYCNADEWRWDEIIPYAVDYCGQGTQVTVSS` has what polyreactivity (PSR sort gate)?
Marked response: low polyreactivity

Exam item: Entry `QVQLVESGGGLVQAGGSLRLSCAASGSTFQVYAMGWYRQAPGKERELVATIRGVGSTNYADSVKGRFTISRDNAKKTVYLQMNSLKPEDTAVYYCNAAVSQFSHRWRRRITFDYWGQGTQVTVSS` has what polyreactivity (PSR sort gate)?
Marked response: low polyreactivity

---

Assay: yeast display, Sf9 membrane polyspecificity reagent, FACS + sequencing; frameworks hold sequencing errors
metric: polyreactivity (PSR sort gate)

Answered cases to consult:
>  <monomer.sequence>
QVQLVESGGGLVQAGGSLRLSCAASGSTLHEYAMGWSIQAPGKERELVAAISRGGGNTNYADSVKGRFTISRDNAKNTVYLQMNSLKPEDTAVYYCNARHGKIIFYLERYDYWGQGTQVTVSS

>  <polyreactivity (PSR sort gate)>
low polyreactivity

$$$$
>  <monomer.sequence>
QVQLQESASGLVQAGGSLRLSCAASGAIFPAYLMGWYRQAPGKERELVAGISYGSITYCADSVKGRFNISRDNAKNTVYLQMNSLKPEDTAVYYCAKDIGVRRRDYEDYEYWGQGTQVTVSS

>  <polyreactivity (PSR sort gate)>
low polyreactivity

$$$$
>  <monomer.sequence>
QVQLVESGGGLVQAGGSLRLSCAASGRIFLYYAMGWYRQAPGKERELVAAITSSGGGTYYADSVKGRFTISRDNAKNTVYLQMNSLKPLDTAVYYCAARRRSQWRYYYWGQGTQVTVSS

>  <polyreactivity (PSR sort gate)>
high polyreactivity

$$$$
>  <monomer.sequence>
QVQLVESGGGLVQAGGSLRLSCAASGFIIRGNVMGWYRQAPGKERELVAAISGRGGSTYYADSVKGRFTISRDNAKNTVYLQMNSLKPEDTAVYYCNAAGLYNSRLDYWGQGTQVTVSS

>  <polyreactivity (PSR sort gate)>
high polyreactivity

$$$$
>  <monomer.sequence>
QVQLVESGGGLVQAGGSLRLSCAASGSTFDFYAMGWYRQAPGKERELVARISSGGGRTYYADSVKGRFTISRDNAKNTVYLQMNSLKPEDTAVYYCATDYPWIFGHFLMDYWGQGTQVTVSS

>  <polyreactivity (PSR sort gate)>
low polyreactivity

$$$$

Exam item: Entry `QVQLVESGGGLVQAGGSLRLSCAASGSTSAWYAMGWYRQAPGKERQLVATISSRGGSTYYADSVKGRFTISRDNAKNTVYLQMNSLKPEDTAVYYCAARIGATYWVDWTHRAYDYWGQGTQVTVSS` has what polyreactivity (PSR sort gate)?
Marked response: high polyreactivity

Exam item: Entry `QVQLVESGGGLVQAGGSLRLSCAASGSIFNYYAMGWYRQAPGKERELVAAITTSGGNTYYADSVKGRFTISRDNAKNTVYLQMNSLKPEDTAVYYCNTVYAGAAWYQYGYWGQGTQVTVSS` has what polyreactivity (PSR sort gate)?
Marked response: low polyreactivity

Exam item: Entry `QVQLVESGGGLVQAGGSLRLSCAASGRTFYYYAMGWYRQAPGKERELVAAINTRGTSTYYADSVKGRFTISRDNAKNTVYLQMNSLKPEDTAVYYCAVDPYGDSWEDWFRNYYYGYDYWGQGTQVTVSS` has what polyreactivity (PSR sort gate)?
Marked response: low polyreactivity

Exam item: Entry `QVQLVESGGGLVQAGGSLRLSCAASGRTFGGNVRGWYRQAPGKERELVAAISYSGGSTHYADSVKGRFTISRDNAKNTVYLQMMSLIPEDTAVYYCNKPFPYYPDGPNGYDYWGQGTQVTVSS` has what polyreactivity (PSR sort gate)?
Marked response: low polyreactivity

Exam item: Entry `QVQLVESGGGLVQAGGSLRLSCAASGFNFIYYAMGWYRQAPGKERELVAAISRRGGSTYYADSVKGRFTISRDNAKNTVYLQMNSLKPEDTAVYYCAADYTSAILRSDYWGQGTQVTVSS` has what polyreactivity (PSR sort gate)?
Marked response: high polyreactivity

Exam item: Entry `QVQLVESGGGLVQAGGSLRLSCAASGSIIHPYTMGWYRPAPGKERELVAGISESSDSTYYADSVKGRFTISRDNAKNTVYLQMNSLKPEYTAVYYCNRDHDWPLSVLEVDYWGQGTQVTVSS` has what polyreactivity (PSR sort gate)?
Marked response: low polyreactivity

---

Experiment: yeast display, Sf9 membrane polyspecificity reagent, FACS + sequencing; frameworks hold sequencing errors
metric: polyreactivity (PSR sort gate)

>  <monomer.sequence>
QVQLVESGGGLVQAGGSLRLSCAASGRTFSVNAMGWYRQAPGKEREMVAAITSGASTNYADSVKGRFTISRDNAKNTVYLQMNSLKPEDTAVYYCAADATYGHVPAEYDYWGQGTQVTVSS

>  <polyreactivity (PSR sort gate)>
low polyreactivity

$$$$
>  <monomer.sequence>
QVQQQESGGGLVQAGGSLRLSCAASGTIFQLTVMGRYRQAPGKERELVASIDYGGNTNYADSVKGRFTISRDNAKNTVYLQMNRLKPEDTAVYYCSASSDSWTTHPYWGQGTQVTVSS

>  <polyreactivity (PSR sort gate)>
low polyreactivity

$$$$
>  <monomer.sequence>
QVQLVESGGGLVQAGGSLRLSCAASGRTFGPNAMGWYRQAPGKERELVAGISWRGTSTYYADSVKGRFTISRDNAKNTVYLQMNSLKPEDTAVYYCAKSVYGYGTLYDHWGQGTQVTVSS

>  <polyreactivity (PSR sort gate)>
high polyreactivity

$$$$
>  <monomer.sequence>
QVQLVESGGGLVQAGGSLRLSCAATGFIFRYYAMGWYSQAPGKERELVATISSGGGTHYADSVKGRYSISRDNAKNTVYLKMNSLKPEDTAVYYCNARGYRRLRTRVDYWGQGTQVTVSS

>  <polyreactivity (PSR sort gate)>
high polyreactivity

$$$$
>  <monomer.sequence>
QVQLVESGGGLVQAGGSLRLSCAASGFTFSRYVMGWYRQAPGKERELVATISSDGDDTYYADSVKGRFTISRDNAKNTVYLQMNSLKPEDTAVYYCAAESYTYYADYGYGYWGQGTQVTVSS

>  <polyreactivity (PSR sort gate)>
high polyreactivity

$$$$

Exam item: Entry `QVHLVESGGGLVQAGGSLRLSCAASGRTFGWNVMGWYRQAPGKERELVAAISGSGGSTYYADSVKVRFTISRDNAKNTVYLQMNSLKPEDTAVYYCAALYGPGREYDYWGQGTQVTVSS` has what polyreactivity (PSR sort gate)?
Marked response: low polyreactivity

Exam item: Entry `QVQLVESAGGLVQAGGSLRLSCDASGSTIDEYDMGWYRQAPGKERELVAAISDRGSRTRYADSVKGRFTISRDNAKNTVYLQLNSLKPEDTAVDYCNADIYVNYWDFDYWGQGTQVTVSS` has what polyreactivity (PSR sort gate)?
Marked response: high polyreactivity

Exam item: Entry `QVQLVESGGGLVQAGGTLRLSCAASGFIIPGYAMGCYRQAPGKERELVAAISGRGGSTYYADSVKGRFTISRDNAKNTVYLQMNSLKPEDTAVYYCNADWQDDLAGYDVDYWGQGTQVTVSS` has what polyreactivity (PSR sort gate)?
Marked response: low polyreactivity
